Tested on: HL-60(TB) leukemia
Test: NCI-60 one-dose screen, 48 h (100 = growth as untreated, 0 = no growth, -100 = all killed)
Conditions: 10 µM unless noted
The panel holds about 83,000 compounds, 20% with a hit somewhere; the sample as a whole holds those more often.
Test readout: growth (%)
One number for each entry, in %.

Some compounds with recorded growth:
CCOC(=O)C1=C(C)NC(=O)NC1c1cc(=O)oc2ccc(C)cc12 (stereo not given) : 97.6
NC[C@@H]1CCN(c2cc3c(cc2F)c(=O)n(N)c(=O)n3Cc2ccc(-c3ccccc3)cc2)C1 : 90.4

Each compound below has a reported value. Please supply its growth.
1. COc1cc(-c2nc3ccc(C)cc3[nH]2)ccc1OCC(=O)N=Nc1c(O)[nH]c2ccccc12
2. COc1ccc(-c2nn(-c3cccc(Cl)c3)cc2-c2cc(-c3ccc(Br)cc3)[nH]c(=O)c2C#N)cc1
3. CCCCOC(=O)Oc1ccc(C(=O)Oc2ccc(OCC)cc2)cc1
4. Nc1c(C(=O)Nc2cccc(Cl)c2)sc2nc3c(cc12)CCCC3
5. COc1ccc(/C=C(/C(=O)c2ccc(Cl)cc2)C(=O)C(F)(F)F)cc1
6. COC(=O)c1c(C)nc(C)c2c1C(=O)C(Br)=C(NCCN1CCOCC1)C2=O

1. -34.3
2. 101
3. 109
4. 78.8
5. 106
6. 61.9

Each compound below has a reported value. Please supply its growth.
1. COC1=C(OC)C(=O)C(CCCCCCCCCCO)=C(C)C1=O
2. COc1ccc2c(c1)N(CCO)C1=C(C(=O)OC1)C2c1cccc(F)c1 (stereo not given)

1: 76.8; 2: -22.7
